tested on: Plasmodium falciparum; experiment: Antimalarial activity against chloroquine-sensitive Plasmodium falciparum D6 by LDH assay; assay type: functional, organism-based; details: Plasmodium falciparum, D6; read-out: IC50
observable: IC50

[
  {
    "molecule": "COc1cc(NC(C)CCCNC(=O)NC(=O)NCCCC(C)Nc2cc(OC)cc3cccnc23)c2ncccc2c1.Cl.Cl (configuration not stated)",
    "value reported": "4.76 µg/mL"
  },
  {
    "molecule": "COc1cc(NC(C)CCCNC(=O)NC(CCCN)C(=O)NCCCC(C)Nc2cc(OC)cc3cccnc23)c2ncccc2c1.Cl (single isomer, unassigned; 37)",
    "value reported": "2.8 µg/mL"
  },
  {
    "molecule": "COc1cc(NC(C)CCCNC(=O)CC[C@H](N)C(=O)NCCCC(C)Nc2cc(OC)cc3ccc(C(C)(C)C)nc23)c2nc(C(C)(C)C)ccc2c1.Cl (some centres not stated)",
    "value reported": "4.7 µg/mL"
  },
  {
    "molecule": "COc1cc(NC(C)CCCNC(=S)NCCCC(C)Nc2cc(OC)cc3cccnc23)c2ncccc2c1.Cl.Cl (configuration not stated)",
    "value reported": "2.3 µg/mL"
  },
  {
    "molecule": "COc1cc(NC(C)CCCNC(=O)NCCCC(C)Nc2cc(OC)cc3ccc(C(C)(C)C)nc23)c2nc(C(C)(C)C)ccc2c1.Cl.Cl (configuration not stated)",
    "value reported": "3 µg/mL"
  },
  {
    "molecule": "COc1cc(NC(C)CCCNC(=O)c2ccncc2C(=O)NCCCC(C)Nc2cc(OC)cc3ccc(C(C)(C)C)nc23)c2nc(C(C)(C)C)ccc2c1.Cl (configuration not stated)",
    "value reported": "1.5 µg/mL"
  },
  {
    "molecule": "COc1cc(NC(C)CCCNC(=O)NCCCC(C)Nc2cc(OC)cc3cccnc23)c2ncccc2c1.Cl.Cl (configuration not stated)",
    "value reported": "4.76 µg/mL"
  }
]
